The reported numbers originate from patent US20230035798A1.

# system.under.test: T1, recombinant human soluble LIGHT, amino acids 74-240 (R&D Systems 664-LI-025) (human, UniProt O43557 74-240)
# T1 construct: range 74-240; also called 74-240 LIGHT; Soluble LIGHT 74-240
# T1 chain: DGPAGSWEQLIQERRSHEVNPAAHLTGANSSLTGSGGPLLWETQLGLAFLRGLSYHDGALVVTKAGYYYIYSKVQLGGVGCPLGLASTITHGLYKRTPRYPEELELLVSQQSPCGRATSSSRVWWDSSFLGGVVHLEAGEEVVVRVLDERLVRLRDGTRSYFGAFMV
# assay: SPR (BIAcore), as for Table 9
pKd: −log10 of the molar value.

# binder, pKd
measured = [
    ("3C10 (antibody, human IgG4, V domains shown, chimeric human IgG4 (S-to-P, L-to-E at 248), human CL; also called Parental 3C10) VH: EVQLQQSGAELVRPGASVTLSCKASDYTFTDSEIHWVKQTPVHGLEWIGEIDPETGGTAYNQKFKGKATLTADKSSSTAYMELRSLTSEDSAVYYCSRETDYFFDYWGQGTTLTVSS VL: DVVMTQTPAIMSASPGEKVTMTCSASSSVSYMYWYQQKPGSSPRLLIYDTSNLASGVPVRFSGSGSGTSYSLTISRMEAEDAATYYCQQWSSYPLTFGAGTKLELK", 7.96),
    ("3A07 (antibody, human IgG4, V domains shown, chimeric human IgG4 (S-to-P, L-to-E at 248), human CL; also called Parental 3A07) VH: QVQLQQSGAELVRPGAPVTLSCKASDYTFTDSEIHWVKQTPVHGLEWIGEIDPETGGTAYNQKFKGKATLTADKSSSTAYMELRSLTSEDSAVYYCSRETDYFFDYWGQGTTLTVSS VL: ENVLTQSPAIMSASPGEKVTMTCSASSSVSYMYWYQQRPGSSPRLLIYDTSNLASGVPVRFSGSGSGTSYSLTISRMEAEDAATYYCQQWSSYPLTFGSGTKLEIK", 7.80),
    ("3D12 (antibody, human IgG4, V domains shown, chimeric: mouse variable domains on human IgG4 HC (S-to-P and L-to-E at 248) and human CL; also called Parental 3D12; 3D12 chimeric) VH: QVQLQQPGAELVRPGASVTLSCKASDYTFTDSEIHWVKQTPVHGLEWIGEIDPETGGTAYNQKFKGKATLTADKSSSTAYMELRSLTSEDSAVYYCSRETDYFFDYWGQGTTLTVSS VL: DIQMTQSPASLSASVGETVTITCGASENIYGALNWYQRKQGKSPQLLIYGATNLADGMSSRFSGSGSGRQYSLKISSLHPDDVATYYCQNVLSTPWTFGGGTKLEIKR", 8.44),
    ("2B11 (antibody, human IgG4, V domains shown, chimeric human IgG4 (S-to-P, L-to-E at 248), human CL; also called Parental 2B11) VH: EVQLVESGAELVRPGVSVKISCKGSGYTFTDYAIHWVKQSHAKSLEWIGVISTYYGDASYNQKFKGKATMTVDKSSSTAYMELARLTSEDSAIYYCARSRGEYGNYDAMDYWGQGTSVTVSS VL: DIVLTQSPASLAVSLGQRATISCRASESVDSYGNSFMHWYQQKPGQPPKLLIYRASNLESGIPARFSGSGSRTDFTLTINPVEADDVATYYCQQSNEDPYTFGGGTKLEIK", 7.80),
]
